This section presents binders with their documented LDH (OD) values.
Target: lactate dehydrogenase (LDH)
Test: phage ELISA, 405 nm; LDH coated
PROPERTY NAME: LDH (OD)

[[record]]
binder = "RCFQDGRMLALSPTYLIRRSVSPLVVGPLPTPAAAGAPVPYPDPLEPRP (peptide, not shown: large carriers) [DGI-2-40F-3-A24]"
assay_value = 0.9

[[record]]
binder = "DGI-2-40F-3-B72 (peptide, not shown: large carriers) peptide: PKDGAAFKGSDFIQGGQTVMERAPALWWRDGGGQWEAPSTAAAGAPVPYPDPLEPRP"
assay_value = 0.7

[[record]]
binder = "DGI-2-40F-3-B5 (peptide, not shown: large carriers) peptide: RSRSSSGASGSMLRVQNHMVLGSWMVRQPMGSMTPFHGHGAAAGAPVPYPDPLEPRP"
assay_value = 0.9

[[record]]
binder = "DAGIGWVGSMWFPPGCIGACAAAGAPVPYPDPLEPRP (peptide, not shown: large carriers) [DGI-2-20R-4-E82]"
assay_value = 1.1

[[record]]
binder = "PAMGHCMQVLGPVLEGRSRDQVGRAAAGAPVPYPDPLEPRP (peptide, not shown: large carriers) [DGI-2-20R-4-G6]"
assay_value = 1.1

[[record]]
binder = "GSVLERGCLEFSGFCFSLGHAAAGAPVPYPDPLEPRP (peptide, not shown: large carriers) [DGI-2-20F-3-C1]"
assay_value = 1

[[record]]
binder = "DGI-2-40F-3-B4 (peptide, not shown: large carriers) peptide: LWLPCGLLVRPAQFYFYFSPLRHFLSSSVGSLSFPLSLLVAAAGAPVPYPDPLEPRP"
assay_value = 0.8

[[record]]
binder = "DGI-2-40F-3-D3 (peptide, not shown: large carriers) peptide: VQFAMTLSSRLWQHARHPLTDDAPPTVSFGTRRETLAGKAAAAGAPVPYPDPLEPRP"
assay_value = 0.9

[[record]]
binder = "DGI-2-40F-3-C52 (peptide, not shown: large carriers) peptide: GLLFTSSPYQCFWVHCTLTMSPLSVLGDLSSTIGRMRASRAAAGAPVPYPDPLEPRP"
assay_value = 0.8

[[record]]
binder = "DGI-2-40F-3-A8 (peptide, not shown: large carriers) peptide: GQISLAGVAVCSSERMLLAFSSRVFLPGLKVPVTTSQRGSAAAGAPVPYPDPLEPRP"
assay_value = 0.8

[[record]]
binder = "RWSICRGLQYSIPGCAVEDLSDVMAAAAGAPVPYPDPLEPRP (peptide, not shown: large carriers) [DGI-2-20C-4-H316]"
assay_value = 1

[[record]]
binder = "DGI-2-40F-3-B11 (peptide, not shown: large carriers) peptide: LAPMFLQNQVRTWAASRRPLPAGPSNARCETGSLSPWVPCAAAGAPVPYPDPLEPRP"
assay_value = 0.9

[[record]]
binder = "DGI-2-40F-3-D7 (peptide, not shown: large carriers) peptide: ALRSLGSGGFGWQAGRASPQGMTHFPYFGWSGMPTARVRPAAAGAPVPYPDPLEPRP"
assay_value = 1

[[record]]
binder = "TPDRCLIYSSIQCLLEYSARRGSADAAAGAPVPYPDPLEPRP (peptide, not shown: large carriers) [DGI-2-20C-3-C65]"
assay_value = 1

[[record]]
binder = "LGNASSLIPFLRSVQESGVRAAAGAPVPYPDPLEPRP (peptide, not shown: large carriers) [DGI-2-20F-3-C5]"
assay_value = 0.9

[[record]]
binder = "VAFGEQIRVAMAGTLWQRWRAAAGAPVPYPDPLEPRP (peptide, not shown: large carriers) [DGI-2-20R-3-D5]"
assay_value = 1.1

[[record]]
binder = "DGI-2-40F-3-D6 (peptide, not shown: large carriers) peptide: GLEPVPFQTDKRIAMGWTREWLVNGYGAAHRRDARMQSGHAAAGAPVPYPDPLEPRP"
assay_value = 1

[[record]]
binder = "YDQVWNSLLAAVLGGQELVNAAAGAPVPYPDPLEPRP (peptide, not shown: large carriers) [DGI-2-20F-3-D112]"
assay_value = 1

[[record]]
binder = "RWSLPAYLCRFVSQASCNSRAAAGAPVPYPDPLEPRP (peptide, not shown: large carriers) [DGI-2-20R-3-C12]"
assay_value = 1

[[record]]
binder = "WFTHVVEKFAAAGAPVPYPDPLEPRP (peptide, not shown: large carriers) [DGI-2-40F-3-A4]"
assay_value = 0.8

[[record]]
binder = "DGL-2-40F-3-D10 (peptide, not shown: large carriers) peptide: TLVTEGNKGSVKAHKDIGVWQLWWDWLSVTDSETVGRVSHAAAGAPVPYPDPLEPRP"
assay_value = 0.9

[[record]]
binder = "DGI-2-40F-3-C6 (peptide, not shown: large carriers) peptide: QMFSKGNWLAHPEGGVALGLSRESQLFRSCREFGYCMGPMAAAGAPVPYPDPLEPRP"
assay_value = 0.8

[[record]]
binder = "MGSLGPFGNINSLASGIGSVRNRPLLPLHGSPAAAGAPVPYPDPLEPRP (peptide, not shown: large carriers) [DGI-2-40F-3-D72]"
assay_value = 1.1

